target: recombinant human PARP (Homo sapiens, UniProt P09874); experiment: Measurement of PARP enzymatic activity (transfer of radiolabeled ADP-ribose from NAD+ to protein acceptor); type: biochemical; conditions: PARP IC50, Table 18
Sequence (P09874 whole entry): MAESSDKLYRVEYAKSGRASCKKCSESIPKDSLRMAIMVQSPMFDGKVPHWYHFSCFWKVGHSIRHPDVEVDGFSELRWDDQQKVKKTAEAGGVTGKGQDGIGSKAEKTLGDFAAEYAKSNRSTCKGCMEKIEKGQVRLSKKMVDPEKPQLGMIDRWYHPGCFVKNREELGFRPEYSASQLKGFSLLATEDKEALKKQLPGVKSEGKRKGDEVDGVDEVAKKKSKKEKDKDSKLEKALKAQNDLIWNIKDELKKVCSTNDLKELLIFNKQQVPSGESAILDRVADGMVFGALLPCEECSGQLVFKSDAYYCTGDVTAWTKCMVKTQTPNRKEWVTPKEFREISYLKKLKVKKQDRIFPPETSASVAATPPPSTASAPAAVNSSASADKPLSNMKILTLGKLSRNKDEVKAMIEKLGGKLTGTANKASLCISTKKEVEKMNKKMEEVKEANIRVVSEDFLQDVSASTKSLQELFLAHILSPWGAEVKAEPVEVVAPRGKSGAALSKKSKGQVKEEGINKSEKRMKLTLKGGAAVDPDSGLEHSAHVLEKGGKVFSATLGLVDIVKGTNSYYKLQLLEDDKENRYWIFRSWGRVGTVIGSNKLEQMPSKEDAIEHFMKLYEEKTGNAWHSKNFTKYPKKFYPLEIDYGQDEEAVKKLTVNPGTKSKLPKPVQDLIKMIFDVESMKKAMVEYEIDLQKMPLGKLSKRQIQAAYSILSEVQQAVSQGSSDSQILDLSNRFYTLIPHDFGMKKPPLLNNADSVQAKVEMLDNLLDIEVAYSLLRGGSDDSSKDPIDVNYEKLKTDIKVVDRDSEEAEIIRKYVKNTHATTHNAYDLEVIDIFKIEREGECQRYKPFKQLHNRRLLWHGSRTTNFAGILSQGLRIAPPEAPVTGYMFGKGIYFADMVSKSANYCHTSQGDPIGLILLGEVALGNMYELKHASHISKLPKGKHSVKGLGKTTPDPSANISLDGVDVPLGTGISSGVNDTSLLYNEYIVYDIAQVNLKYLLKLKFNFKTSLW
metric name: pIC50
Give bare numbers, as −log10 of the molar value.

Worked examples follow.
> print(dat)
                                   molecule  metric.name  quantitative.readout
1  O=C(NCCn1cncn1)Oc1ccc2[nH]c3c4c(c5c(c3c2c1)C(=O)NC5=O)CCC4 [Compound 15n]        pIC50                  7.42
2  O=C1NC(=O)c2c1c1c(c3[nH]c4ccc(OC(=O)N5CCCCC5)cc4c23)CCC1 [Compound 15p]        pIC50                  7.09

Shift focus to the following entry.
Notebook entry, recombinant human PARP (Homo sapiens, UniProt P09874) assay: pIC50 of O=C1NC(=O)c2c1c1c(c3[nH]c4ccc(OC(=O)N5CCOCCOCCOCC5)cc4c23)CCC1 [Compound 15o] = ?
7.12

----------
Biological target: recombinant human PARP (Homo sapiens, UniProt P09874)
Assay: Measurement of PARP enzymatic activity (transfer of radiolabeled ADP-ribose from NAD+ to protein acceptor)
Assay type: biochemical
Conditions: Table 3; read-out: PARP IC50
Protocol: PARP activity was monitored by transfer of radiolabeled ADP-ribose units from [^32]NAD^+ to a protein acceptor such as histone or PARP itself. […] The amount of acid-insoluble radioactivity, corresponding to polyADP-ribosylated protein, was quantitated in a Wallac MicroBeta scintillation counter. Single-point inhibition data were calculated by comparing PARP, VEGFR2, or MLK3 activity in the presence of inhibitor to activity in the presence of DMSO only. […]
Structures can show the parent of a compound that is named as a salt.
metric name: IC50 (nM)
Give bare numbers, in nM.

> print(dat)
                                   molecule  metric.name  quantitative.readout
1  N#Cc1ccc2c(c1)c1c3c(c4c(c1n2C(=O)[C@@H](N)CCCCN)CCC4)C(=O)NC3 [Compound 6j, dihydrochloride]         IC50                   460
2  NCCCC[C@H](N)C(=O)N1C(=O)c2c3c(c4[nH]c5ccc(Cl)cc5c4c2C1=O)CCC3         IC50                    62

Record O=C1NC(=O)c2c1c1c(c3[nH]c4ccccc4c23)CCC1 : what is its IC50 with recombinant human PARP (Homo sapiens, UniProt P09874)?
36

----------
biological target: recombinant human PARP (Homo sapiens, UniProt P09874); test: Measurement of PARP enzymatic activity (transfer of radiolabeled ADP-ribose from NAD+ to protein acceptor); type: biochemical
metric name: IC50 (µM)
Give bare numbers, in µM.

Entry under review: O=C1NC(=O)c2c1c1c(c3[nH]c4ccc(C(=O)N5CCC6(CC5)OCCO6)cc4c23)CCC1 [Compound 2db] . Reported IC50?
0.011

----------
Give measured pIC50 for each item. Keep answers brief.
target: recombinant human PARP (Homo sapiens, UniProt P09874); experiment: Measurement of PARP enzymatic activity (transfer of radiolabeled ADP-ribose from NAD+ to protein acceptor); format: biochemical; conditions: Table 2; read-out: PARP IC50
Numbers only, as −log10 of the molar value.

Example entries begin here.
> print(dat)
                               input.smiles  quantitative.readout
1  CC(C)(C)S(=O)(=O)Cc1nc(-c2ccc3[nH]c4c5c(c6c(c4c3c2)C(=O)NC6=O)CCC5)cs1                  7.68
2  O=C(O)CCC(=O)NCc1ccc2[nH]c3c4c(c5c(c3c2c1)C(=O)NC5=O)CCC4                  7.30
3  CC(C)(C)OC(=O)NCC(=O)NCc1ccc2[nH]c3c4c(c5c(c3c2c1)C(=O)NC5=O)CCC4                  7.48
4  N#CCc1ccc2[nH]c3c4c(c5c(c3c2c1)C(=O)NC5=O)CCC4                  7.62
5  O=C1NC(=O)c2c1c1c(c3[nH]c4ccc(CN5CCOCC5)cc4c23)CCC1                  7.49
6  CC(C)(C)OC(=O)NCCNC(=O)CCC(=O)c1ccc2[nH]c3c4c(c5c(c3c2c1)C(=O)NC5=O)CCC4                  7.80

Please look at the items below and tell me pIC50 for each one, in order.
1. O=C1NC(=O)c2c1c1c(c3[nH]c4ccc(C(=O)N5CCOCC5)cc4c23)CCC1
2. CN1CCN(C(=O)c2ccc3[nH]c4c5c(c6c(c4c3c2)C(=O)NC6=O)CCC5)CC1
3. O=C(NCc1ccncc1)c1ccc2[nH]c3c4c(c5c(c3c2c1)C(=O)NC5=O)CCC4
4. CCN(CC)C(=O)CCC(=O)c1ccc2[nH]c3c4c(c5c(c3c2c1)C(=O)NC5=O)CCC4
5. CN1N=C(c2ccc3[nH]c4c5c(c6c(c4c3c2)C(=O)NC6=O)CCC5)CCC1=O

1: 7.92; 2: 7.92; 3: 7.89; 4: 7.92; 5: 7.92
